Data provenance: patent US20120065066A1

- Test system: Digitaria sanguinalis (DIGSA)
- ASSAY_PROCEDURE: Test Example 1, post-emergence herbicidal test
- Type: in vivo
- ASSAY_SETUP: 360 h, evaluated 15 days later, 100=total damage to plant, 0=no damage to plant
Attribute: pest or weed control at 125 g/ha
Kindly provide the numeric value in % only, without the unit symbol.

Please review the following examples before continuing.
COMPOUND: CCc1ccc(-c2ccc(Cl)cc2)cc1C1=C(O)[C@H]2[C@H]3C=C[C@](OC)(CC3)[C@H]2C1=O (racemic)
pest or weed control at 125 g/ha (%): 100
--
COMPOUND: Cc1cc(C)c(C2=C(O)[C@H]3[C@H]4CC[C@H](C4)[C@H]3C2=O)c(C)c1 (racemic)
pest or weed control at 125 g/ha (%): 30

Request: Annotate the compound "CCc1cc(C)cc(CC)c1C1=C(O)[C@H]2[C@H]3C=C[C@](OC)(CC3)[C@H]2C1=O" with its measured pest or weed control at 125 g/ha.
Result: 80

----------
- Test system: Digitaria sanguinalis (DIGSA)
- ASSAY_PROCEDURE: Test Example 1, post-emergence herbicidal test
- Assay type: in vivo
- ASSAY_SETUP: 360 h, evaluated 15 days later, 100=total damage to plant, 0=no damage to plant
Attribute: pest or weed control at 125 g/ha

Request: Annotate the compound CCc1cc(C)cc(CC)c1C1=C(O)[C@@H]2[C@H](C1=O)[C@@H]1CC[C@H]2C1=C(C)C [Compound T51] with its measured pest or weed control at 125 g/ha.
Result: 30%

Request: Annotate the compound CCc1ccc(-c2ccc(Cl)cc2)cc1C1=C(O)[C@H]2C3CCC(C3=C(C)C)[C@H]2C1=O (stereo partly shown) [Compound T21] with its measured pest or weed control at 125 g/ha.
Result: 20%

Request: Annotate the compound CCc1cc(C)cc(CC)c1C1=C(O)[C@H]2[C@H]3CC[C@H](C3)[C@H]2C1=O [Compound T49] with its measured pest or weed control at 125 g/ha.
Result: 100%

Request: Annotate the compound CCc1cc(C)cc(CC)c1C1=C(O)[C@@H]2[C@H](C1=O)[C@H]1CC[C@@H]2C1=C(C)C [Compound T52] with its measured pest or weed control at 125 g/ha.
Result: 70%

----------
- Test system: Avena fatua (AVEFA)
- ASSAY_PROCEDURE: Test Example B, post-emergence herbicidal test
- Type: in vivo
- ASSAY_SETUP: 312 h, evaluated after 13 days, 100=total damage to plant, 0=no damage to plant
Attribute: pest or weed control at 250 g/ha
Kindly provide the numeric value in % only, without the unit symbol.

Please review the following examples before continuing.
COMPOUND: CCc1ccc(-c2ccc(Cl)s2)cc1C1=C(O)[C@H]2[C@H]3CC[C@H](CC3)[C@H]2C1=O
RESULT_UNIT: %
pest or weed control at 250 g/ha: 50

COMPOUND: CCc1ccc(-c2c(F)cc(Cl)cc2F)cc1C1=C(O)[C@H]2[C@H]3CC[C@H](CC3)[C@H]2C1=O
RESULT_UNIT: %
pest or weed control at 250 g/ha: 100

COMPOUND: CCc1ccc(-c2ccc(F)cc2)cc1C1=C(O)[C@H]2[C@H]3CC[C@H](CC3)[C@H]2C1=O
RESULT_UNIT: %
pest or weed control at 250 g/ha: 30

COMPOUND: Cc1ccc(-c2ccc(Cl)cc2)cc1C1=C(O)[C@H]2[C@H]3CC[C@H](C3)[C@H]2C1=O
RESULT_UNIT: %
pest or weed control at 250 g/ha: 60

COMPOUND: CCc1ccc(-c2ccc(Cl)cc2F)cc1C1=C(O)[C@H]2[C@H]3CC[C@H](C3)[C@H]2C1=O (racemic)
RESULT_UNIT: %
pest or weed control at 250 g/ha: 10

COMPOUND: Cc1ccc(-c2ccc(Cl)cc2)cc1C1=C(O)[C@H]2[C@H]3CC[C@H](CC3)[C@H]2C1=O
RESULT_UNIT: %
pest or weed control at 250 g/ha: 80

COMPOUND: CCc1ccc(-c2ccc(Cl)cc2C)cc1C1=C(O)[C@H]2[C@H]3CC[C@H](C3)[C@H]2C1=O
RESULT_UNIT: %
pest or weed control at 250 g/ha: 0

COMPOUND: Cc1cc(-c2ccccc2)cc(C)c1C1=C(O)[C@@H]2[C@H](C1=O)[C@@H]1C=C[C@H]2CC1 (racemic)
RESULT_UNIT: %
pest or weed control at 250 g/ha: 60

API: the following record is the query input.
Request: Annotate the compound CCc1ccc(-c2ccc(Cl)cc2)cc1C1=C(O)[C@H]2[C@H]3CC[C@H](C3)[C@H]2C1=O (racemic) with its measured pest or weed control at 250 g/ha.
Result: 100

----------
- Test system: Digitaria sanguinalis (DIGSA)
- ASSAY_PROCEDURE: Test Example 1, pre-emergence herbicidal test
- Assay type: in vivo
- ASSAY_SETUP: 480 h, evaluated 20 days later, 100=total damage to plant, 0=no damage to plant
OBSERVATION_TYPE: pest or weed control at 250 g/ha (%)
Kindly provide the numeric value in % only, without the unit symbol.

Please review the following examples before continuing.
MOLECULE: Cc1cc(C)c(C2=C(O)[C@H]3[C@H]4CC[C@H](CC4)[C@H]3C2=O)c(C)c1
pest or weed control at 250 g/ha [%]: 100
--
MOLECULE: CCc1cc(C)cc(CC)c1C1=C(O)[C@@H]2[C@H](C1=O)[C@H]1CC[C@@H]2C1=C(C)C
pest or weed control at 250 g/ha [%]: 80
--
MOLECULE: CCc1cc(C)cc(CC)c1C1=C(O)[C@@H]2[C@H](C1=O)[C@@H]1CC[C@H]2C1=C(C)C
pest or weed control at 250 g/ha [%]: 80
--
MOLECULE: CCc1ccc(-c2ccc(Cl)cc2)cc1C1=C(O)[C@H]2C3CCC(C3=C(C)C)[C@H]2C1=O (stereo partly shown)
pest or weed control at 250 g/ha [%]: 50
--
MOLECULE: CCc1cc(C)cc(CC)c1C1=C(O)[C@H]2[C@H]3C=C[C@](OC)(CC3)[C@H]2C1=O
pest or weed control at 250 g/ha [%]: 100

Request: Annotate the molecule CCc1cc(C)cc(CC)c1C1=C(O)[C@H]2[C@H]3CC[C@H](CC3)[C@H]2C1=O (racemic) with its measured pest or weed control at 250 g/ha.
Result: 100

Request: Annotate the molecule "Cc1cc(C)c(C2=C(O)[C@@H]3[C@H](C2=O)[C@@H]2C=C[C@H]3CC2)c(C)c1" with its measured pest or weed control at 250 g/ha.
Result: 80

----------
- System: Avena fatua (AVEFA)
- ASSAY_PROCEDURE: Test Example B, post-emergence herbicidal test
- Type: in vivo
- ASSAY_SETUP: 312 h, evaluated after 13 days, 100=total damage to plant, 0=no damage to plant
Attribute: pest or weed control at 250 g/ha
Kindly provide the numeric value in % only, without the unit symbol.

Request: Annotate the molecule "CCc1ccc(-c2ccc(Cl)c(F)c2Cl)cc1C1=C(O)[C@H]2[C@H]3CC[C@H](CC3)[C@H]2C1=O" with its measured pest or weed control at 250 g/ha.
Result: 30

Request: Annotate the molecule "CCc1ccc(-c2ccc(Cl)c(F)c2Cl)cc1C1=C(O)[C@H]2[C@H]3CC[C@H](C3)[C@H]2C1=O" with its measured pest or weed control at 250 g/ha.
Result: 50

Request: Annotate the molecule "CCc1ccc(-c2ccc(Cl)c(F)c2)cc1C1=C(O)[C@H]2[C@H]3CC[C@H](CC3)[C@H]2C1=O" with its measured pest or weed control at 250 g/ha.
Result: 100

Request: Annotate the molecule "CCc1ccc(-c2ccc(Cl)c(Cl)c2)cc1C1=C(O)[C@H]2[C@H]3CC[C@H](CC3)[C@H]2C1=O" with its measured pest or weed control at 250 g/ha.
Result: 60

Request: Annotate the molecule CCc1ccc(-c2ccc(Cl)cc2F)cc1C1=C(O)[C@H]2[C@H]3CC[C@H](CC3)[C@H]2C1=O (racemic) with its measured pest or weed control at 250 g/ha.
Result: 0

Request: Annotate the molecule "CCc1ccc(-c2ccc(Cl)nc2)cc1C1=C(O)[C@H]2[C@H]3CC[C@H](C3)[C@H]2C1=O" with its measured pest or weed control at 250 g/ha.
Result: 20

Request: Annotate the molecule "CCc1ccc(-c2ccc(Cl)c(OC)c2)cc1C1=C(O)[C@H]2[C@H]3CC[C@H](CC3)[C@H]2C1=O" with its measured pest or weed control at 250 g/ha.
Result: 0

Request: Annotate the molecule "CCc1ccc(-c2ccc(Cl)cc2Cl)cc1C1=C(O)[C@H]2[C@H]3CC[C@H](C3)[C@H]2C1=O" with its measured pest or weed control at 250 g/ha.
Result: 0
